IC50 for Tyrosine-protein kinase ABL1 (Homo sapiens), merged from several publications.

A selection of reference data follows.
Prompt line: Please report IC50 with Tyrosine-protein kinase ABL1 (Homo sapiens) for item `Cc1ccc2[nH]ncc2c1/C=C/n1cnc2c(Nc3ccc(P(C)(C)=O)cc3)ncnc21` .
Sequence (P00519 whole entry): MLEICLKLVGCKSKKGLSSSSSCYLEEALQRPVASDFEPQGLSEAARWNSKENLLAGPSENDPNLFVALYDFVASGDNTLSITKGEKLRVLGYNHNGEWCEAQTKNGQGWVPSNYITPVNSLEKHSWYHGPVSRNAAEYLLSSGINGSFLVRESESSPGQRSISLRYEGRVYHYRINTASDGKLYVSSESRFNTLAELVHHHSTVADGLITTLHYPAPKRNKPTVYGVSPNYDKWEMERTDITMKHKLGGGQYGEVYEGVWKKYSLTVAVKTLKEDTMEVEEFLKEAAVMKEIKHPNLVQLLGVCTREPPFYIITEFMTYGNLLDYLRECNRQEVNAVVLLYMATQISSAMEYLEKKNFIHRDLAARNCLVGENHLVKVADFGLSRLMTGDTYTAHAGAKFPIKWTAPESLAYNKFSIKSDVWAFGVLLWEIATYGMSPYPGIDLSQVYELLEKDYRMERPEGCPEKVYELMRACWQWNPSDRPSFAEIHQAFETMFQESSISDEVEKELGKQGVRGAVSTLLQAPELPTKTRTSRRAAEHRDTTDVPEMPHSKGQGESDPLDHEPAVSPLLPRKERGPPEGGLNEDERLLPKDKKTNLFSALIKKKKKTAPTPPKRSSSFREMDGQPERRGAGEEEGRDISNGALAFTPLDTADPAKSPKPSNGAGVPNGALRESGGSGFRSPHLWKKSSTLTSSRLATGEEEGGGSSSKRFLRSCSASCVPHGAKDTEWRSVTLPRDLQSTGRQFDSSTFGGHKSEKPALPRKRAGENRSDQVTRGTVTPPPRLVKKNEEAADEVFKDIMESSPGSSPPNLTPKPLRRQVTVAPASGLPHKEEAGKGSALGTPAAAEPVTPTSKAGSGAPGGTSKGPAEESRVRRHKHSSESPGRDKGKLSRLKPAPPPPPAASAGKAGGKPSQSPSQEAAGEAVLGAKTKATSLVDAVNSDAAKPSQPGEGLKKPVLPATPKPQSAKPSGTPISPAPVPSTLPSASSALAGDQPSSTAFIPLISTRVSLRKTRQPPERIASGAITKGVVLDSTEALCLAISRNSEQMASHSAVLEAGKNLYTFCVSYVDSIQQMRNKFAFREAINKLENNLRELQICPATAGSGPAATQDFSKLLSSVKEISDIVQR
Response line: < 0.0005 µM

Prompt line: Please report IC50 with Tyrosine-protein kinase ABL1 (Homo sapiens) for item `C=CCN1C(=O)C(=C)SC1=NN=c1scc(O)n1C` .
Response line: > 100 µM

Prompt line: Please report IC50 with Tyrosine-protein kinase ABL1 (Homo sapiens) for item `C=C(C)Cn1c(O)c(OS(=O)O)sc1=NN=c1scc(O)n1C` .
Response line: > 100 µM

Prompt line: Please report IC50 with Tyrosine-protein kinase ABL1 (Homo sapiens) for item `C=C(C)Cn1c(O)csc1=NN=c1scc(O)n1C` .
Response line: > 100 µM

Prompt line: Please report IC50 with Tyrosine-protein kinase ABL1 (Homo sapiens) for item `Cc1ccc(NC(=O)Nc2ccc(Cl)c(C(F)(F)F)c2)cc1C#Cc1cnc2c(Nc3cnn(C)c3)ccnn12` .
Response line: 0.0829 µM

New cases:
Prompt line: Please report IC50 with Tyrosine-protein kinase ABL1 (Homo sapiens) for item `Cc1ccc(NC(=O)Nc2ccc(Cl)c(C(F)(F)F)c2)cc1C#Cc1cnc2c(Nc3cnn(C)c3)nccn12` .
Response line: 0.0321 µM

Prompt line: Please report IC50 with Tyrosine-protein kinase ABL1 (Homo sapiens) for item N[C@@H](CCCCN=CC1C(=O)Nc2ccc(Br)cc21)C(=O)O (stereo partly drawn) .
Response line: > 10 µM

Prompt line: Please report IC50 with Tyrosine-protein kinase ABL1 (Homo sapiens) for item `C=CCn1c(O)c(C)sc1=NN=c1scc(O)n1C` .
Response line: > 100 µM
